Target Or System: phosphodiesterase enzyme type 5 (PDE5) (Homo sapiens, UniProt O76074)
Experiment Description: In vitro enzyme assay (Transcreener fluorescence polarization)
Type: biochemical
Measurement Conditions: 10-dose, 3-fold serial dilution starting at 50 uM
Quantity Kind: IC50 (nM)

Worked set:
O=C(Cc1nc2ncccc2[nH]c1=O)N/N=C/c1ccccc1 : 59.1
COc1ccc(/C=N/NCc2nc3ncccc3[nH]c2=O)cc1 : 32.3

a = O=c1[nH]c2cccnc2nc1CN/N=C/c1ccc(Cl)cc1
b = O=c1[nH]c2cccnc2nc1CN1CCCCC1
c = O=c1[nH]c2cccnc2nc1CNc1ccccc1
**Query** Hey, quick one: sort these by IC50, largest value first please. In plain terms: list the labels in the order you were asked to.
**Result** c, b, a
